These measurements were taken from patent US5070210A.

System: Maize weevil [Sitophilus Zeamais (Motschulsky)]
Test: Maize weevil insecticidal test
Type: in vivo
Conditions: adult weevils, percent in solution; 48 hours
endpoint: LC50, MW

Look over these answered cases.
LC50, MW reading for `CCC(=Nc1ccc(Cl)cc1)OCc1cccc(Oc2ccccc2)c1` : > 0.01%

LC50, MW reading for `CC(C)C(=Nc1ccc(Br)c(Cl)c1)OCc1ccc(F)c(Oc2ccc(F)cc2)c1` : > 0.01%

Attention now shifts to the item below.
LC50, MW reading for `FC(F)(F)C(=Nc1ccc(Cl)cc1)OCc1cccc(Oc2ccccc2)c1` : > 0.01%
